assay: AUC (0 to infinity) in rat at 10 mg/kg, po; format: ADME, organism-based; set-up: dose 10 mg/kg, route oral, time infinity; details: in vivo
property_measured: AUC(0-inf) (ng·h/mL)
Supply the numeric figure in ng·h/mL, leaving out any unit text.

QUERY: Reported AUC(0-inf), molecule CC(C)c1cc(CN2Cc3ccccc3S2(=O)=O)nn1-c1ccc(F)cc1 : ____
RESULT: 274

* * *

molecular target: CYP3A4 (Homo sapiens); test: Inhibition of recombinant human CYP3A4 expressed in baculosomes assessed as residual activity at 10 uM using vivid BOMCC/DBOMF/BOMR as substrate after 15 mins in presence of NADPH by fluorescence assay relative to control; type: ADME; settings: probe Vivid BOMCC/DBOMF/BOMR, read-out: Activity
Sequence (P08684 whole entry): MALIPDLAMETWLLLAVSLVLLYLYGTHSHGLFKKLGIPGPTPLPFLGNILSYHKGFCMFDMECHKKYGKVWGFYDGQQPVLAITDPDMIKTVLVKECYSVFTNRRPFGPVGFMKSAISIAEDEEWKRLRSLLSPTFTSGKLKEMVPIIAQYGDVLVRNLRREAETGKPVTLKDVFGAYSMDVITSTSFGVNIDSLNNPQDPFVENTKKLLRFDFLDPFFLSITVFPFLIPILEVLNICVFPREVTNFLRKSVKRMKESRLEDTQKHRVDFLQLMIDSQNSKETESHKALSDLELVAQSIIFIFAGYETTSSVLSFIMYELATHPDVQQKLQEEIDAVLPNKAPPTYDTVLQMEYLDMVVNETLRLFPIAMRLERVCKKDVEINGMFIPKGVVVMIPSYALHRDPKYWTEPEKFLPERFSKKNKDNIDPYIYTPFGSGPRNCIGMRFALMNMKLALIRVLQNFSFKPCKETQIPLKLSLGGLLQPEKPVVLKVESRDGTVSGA
property_measured: activity at 0.25 h, 10 µM (%)
Answer with a number only, understood to be in %.

Record excerpt, results attached:
INSERT INTO measurements (smiles, units_label, data_value) VALUES
  ('CC(C)c1cc(CN2Cc3ccccc3S2(=O)=O)nn1C(C)(C)C', '%', 52.1),
  ('CC(C)c1cc(CN2Cc3ccccc3S2(=O)=O)nn1-c1ccc(F)cc1', '%', 45.7),
  ('Cc1c(CNS(=O)(=O)c2ccccc2)nn(-c2ccccc2)c1CC(C)C', '%', 38.7);

Next:
QUERY: Request: activity at 0.25 h, 10 µM, test system CYP3A4 (Homo sapiens), entry CC(C)c1cc(CN2Cc3ccccc3S2(=O)=O)nn1-c1ccccc1
RESULT: 47.2
